biological target: AaegOR55 (Aedes aegypti, UniProt Q16T12); experiment: Two-electrode voltage clamp of Xenopus laevis oocytes expressing AaegOR55/Orco (blends, unitary compounds, concentration-response); conditions: AaegOR55/Orco expressing oocytes, TEVC, concentration-response of normalized current
Sequence (Q16T12 10-392, one chain of several): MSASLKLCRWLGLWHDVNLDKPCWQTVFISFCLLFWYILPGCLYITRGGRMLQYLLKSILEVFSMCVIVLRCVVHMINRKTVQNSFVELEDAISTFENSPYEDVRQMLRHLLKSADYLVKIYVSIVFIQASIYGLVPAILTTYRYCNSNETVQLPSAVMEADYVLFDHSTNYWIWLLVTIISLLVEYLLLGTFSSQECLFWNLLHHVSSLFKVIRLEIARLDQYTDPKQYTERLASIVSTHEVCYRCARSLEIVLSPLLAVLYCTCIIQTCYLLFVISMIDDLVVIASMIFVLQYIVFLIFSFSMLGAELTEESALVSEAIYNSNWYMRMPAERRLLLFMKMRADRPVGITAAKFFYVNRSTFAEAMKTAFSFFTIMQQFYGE
reportedEndpoint: pEC50
Give bare numbers, as −log10 of the molar value.

What pEC50 value was documented for this compound, Cc1[nH]c2ccccc2c1C ?
5.06

====

biological target: AaegOR8 (Aedes aegypti); experiment: Two-electrode voltage clamp of Xenopus laevis oocytes expressing AaegOR8/Orco (blends, unitary compounds, concentration-response); type: cell-based; details: Alcohols 2 unitary compounds; oocyte 7
Sequence (Q16MN0 32-422): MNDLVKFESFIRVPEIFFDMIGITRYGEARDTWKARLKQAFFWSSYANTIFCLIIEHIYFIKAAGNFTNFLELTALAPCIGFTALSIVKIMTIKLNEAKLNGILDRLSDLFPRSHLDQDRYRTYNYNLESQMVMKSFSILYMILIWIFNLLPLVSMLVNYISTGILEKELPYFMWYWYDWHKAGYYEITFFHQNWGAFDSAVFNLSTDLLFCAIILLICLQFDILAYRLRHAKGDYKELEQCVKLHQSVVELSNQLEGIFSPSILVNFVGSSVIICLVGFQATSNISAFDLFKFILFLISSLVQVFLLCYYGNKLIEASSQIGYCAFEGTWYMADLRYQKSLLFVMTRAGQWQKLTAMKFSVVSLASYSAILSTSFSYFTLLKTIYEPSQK
Sequence (Q178U6 whole entry partner): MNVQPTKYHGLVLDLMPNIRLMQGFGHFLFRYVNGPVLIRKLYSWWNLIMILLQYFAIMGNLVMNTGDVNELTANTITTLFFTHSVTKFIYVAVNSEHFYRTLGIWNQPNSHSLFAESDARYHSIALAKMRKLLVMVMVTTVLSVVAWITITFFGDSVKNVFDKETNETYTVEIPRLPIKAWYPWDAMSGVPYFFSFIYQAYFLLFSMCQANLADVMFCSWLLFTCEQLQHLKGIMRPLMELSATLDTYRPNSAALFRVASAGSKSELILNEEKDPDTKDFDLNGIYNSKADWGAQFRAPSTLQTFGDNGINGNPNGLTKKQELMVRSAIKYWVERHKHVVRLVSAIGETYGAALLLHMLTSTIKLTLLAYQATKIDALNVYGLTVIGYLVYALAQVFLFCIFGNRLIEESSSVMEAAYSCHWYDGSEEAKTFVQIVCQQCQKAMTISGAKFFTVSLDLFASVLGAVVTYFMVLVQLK
Give Raw data (Responses in nA) Oocyte 7 for every item shown.
Numbers only, in nA.

Solved cases below.
compound: C=CC(O)CCCCC (stereo not drawn)
unitOfMeasure: nA
Raw data (Responses in nA) Oocyte 7: 2720.0
--
compound: CCC/C=C/C=O [trans-2-hexenal]
unitOfMeasure: nA
Raw data (Responses in nA) Oocyte 7: 0.0
--
compound: CCC/C=C/CO [trans-2-hexen-1-ol]
unitOfMeasure: nA
Raw data (Responses in nA) Oocyte 7: 0.0
--
compound: CCCCCCO
unitOfMeasure: nA
Raw data (Responses in nA) Oocyte 7: 120.0

Look up Raw data (Responses in nA) Oocyte 7 for the entries below, preserving their order.
1. OC1CCCCC1
2. COc1ccccc1

0.0
5.0

Look up Raw data (Responses in nA) Oocyte 7 for the entries below, preserving their order.
1. CC1CCCC2(C)CCCCC12O (stereo not drawn)
2. CC/C=C\CCO [cis-3-hexen-1-ol]
3. C[C@@H]1CC[C@H]2C(C)(C)[C@H]3C[C@@]12CC[C@@]3(C)O

1. 0.0
2. 10.0
3. 0.0
